# assay.system: HLA-DRB1*04:04 protein (human)
# protocol.details: fluorescence polarisation; competition: serial dilution of peptide from 500 μM against 20 nM TAMRA-HA for 100 nM HLA-DRB1 protein with 20 nM HLA-DM; 100 mM trisodium citrate pH 5.4, 50 mM NaCl, 5 mM EDTA; 37 °C, read after 24, 48 and 72 h
Where no end group is shown, it is not given here. [ ]: non-standard residue; d: D form. Cit = NC(=O)NCCC[C@H](N)C(=O)O
attribute.measured: IC50

Query block: Entry D[Cit]Y[Cit]LNYSLPTG [TNC1014,1016cit peptide] needs its IC50 filled in; supply it.
Result block: > 300 µM
